Test system: WT HIV-1 strain (IIIB)
Assay: Anti-HIV-1 activity in MT-4 cells, MTT method, wild-type strain IIIB
Format: cell-based
Conditions: selectivity index, ratio of CC50/EC50, strain IIIB
Parameter measured: SI IIIB
Please respond with just the number, no unit label.

// solved cases for SI IIIB follow
Cc1cc(C#N)cc(C)c1Oc1nc(NC2CCN(Cc3ccc(S(C)(=O)=O)cc3)CC2)nc2c1CSC2 [Compound D2]
11690
Cc1cc(C#N)cc(C)c1Oc1nc(NC2CCN(Cc3ccncc3)CC2)nc2c1COC2
11414
Cc1cc(C#N)cc(C)c1Oc1nc(NC2CCN(Cc3ccc(S(N)(=O)=O)cc3)CC2)nc2c1SCC2
4584
Cc1cc(C#N)cc(C)c1Oc1nc(NC2CCN(Cc3ccc(S(N)(=O)=O)cc3)CC2)nc2c1COC2
11167

Consider the additional molecule presented here.
# input Respond only with SI IIIB recorded for Cc1cc(C#N)cc(C)c1Oc1nc(NC2CCN(Cc3ccc([N+](=O)[O-])cc3)CC2)nc2c1SCC2
# output 770

====

Measured CC50 values are reported for all entries that follow.
System: mock-infected MT-4 cells
Experiment: Cytotoxicity in mock-infected MT-4 cells, MTT method
Type: cell-based
Conditions: human, 5 days
Record the value in µM, omitting the unit from your answer.

Cc1cc(C#N)cc(C)c1Oc1nc(NC2CCN(Cc3ccc(S(N)(=O)=O)cc3)CC2)nc2c1CSC2 [Compound D1]
26.6
Cc1cc(C#N)cc(C)c1Oc1nc(NC2CCN(Cc3ccc(S(C)(=O)=O)cc3)CC2)nc2c1CSC2 [Compound D2]
45.3
Cc1cc(C#N)cc(C)c1Oc1nc(NC2CCN(Cc3ccc(S(N)(=O)=O)cc3)CC2)nc2c1SCC2
19.9
Cc1cc(C#N)cc(C)c1Oc1nc(NC2CCN(Cc3ccc([N+](=O)[O-])cc3)CC2)nc2c1SCC2
6.18
Cc1cc(C#N)cc(C)c1Oc1nc(NC2CCN(Cc3ccc(S(C)(=O)=O)cc3)CC2)nc2c1SCC2
11.9

Could you now look at the following compound, please?
# input Output measured CC50 for this item: Cc1cc(C#N)cc(C)c1Oc1nc(NC2CCN(Cc3ccc(C(N)=O)cc3)CC2)nc2c1SCC2
# output 165

====

Recorded measurements of log10 of CC50 at 5 days, one per entry
Experiment: Cytotoxicity in mock-infected MT-4 cells, MTT method
Type: cell-based
Settings: human, CC50
Annotation: log10 of CC50 at 5 days, µM basis.

The cases that follow already have their log10 of CC50 at 5 days on record.
Cc1cc(C#N)cc(C)c1Oc1nc(NC2CCN(Cc3ccc([N+](=O)[O-])cc3)CC2)nc2c1CCC2 [Compound C5]
0.87
Cc1cc(C#N)cc(C)c1Oc1nc(NC2CCN(Cc3cccc(C(N)=O)c3)CC2)nc2c1CCC2 [Compound C6]
0.94
Cc1cc(C#N)cc(C)c1Oc1nc(NC2CCN(Cc3ccncc3)CC2)nc2c1COC2 [Compound B4]
1.51
Cc1cc(C#N)cc(C)c1Oc1nc(NC2CCN(Cc3ccc(S(C)(=O)=O)cc3)CC2)nc2c1COC2 [Compound B3]
1.43
Cc1cc(C#N)cc(C)c1Oc1nc(NC2CCN(Cc3ccncc3)CC2)nc2c1CCC2 [Compound C4]
2.31

// below: log10 of CC50 at 5 days requested for another molecule
# input Entry Cc1cc(C#N)cc(C)c1Oc1nc(NC2CCN(Cc3ccc(S(N)(=O)=O)cc3)CC2)nc2c1COC2 [Compound B1] needs its log10 of CC50 at 5 days filled in; supply it.
# output 1.36

====

Assay: Cytotoxicity in mock-infected MT-4 cells, MTT method
Assay type: cell-based
Details: human, mock-infected MT-4 cells, concentration reducing viability of mock-infected MT-4 cell cultures by 50%, MTT method; read-out: CC50
Parameter measured: CC50 at 5 days

# input Read the entry Cc1ccnc2c1NC(=O)c1cccnc1N2C1CC1 [NVP, Nevirapine, reference compound] and write its reported CC50 at 5 days.
# output > 9.51 µM

====

Tested on: WT HIV-1 strain (IIIB)
Assay: Anti-HIV-1 activity in MT-4 cells, MTT method, wild-type strain IIIB
Format: cell-based
Settings: selectivity index, ratio of CC50/EC50, strain IIIB
In this section, each of the molecules is paired with its reported SI IIIB.
Format: numeric value only, no unit, no commentary.

Cc1cc(C#N)cc(C)c1Oc1nc(NC2CCN(Cc3ccc(S(C)(=O)=O)cc3)CC2)nc2c1SCC2 [Compound A3]
2025
Cc1cc(C#N)cc(C)c1Oc1nc(NC2CCN(Cc3ccc(C(N)=O)cc3)CC2)nc2c1SCC2 [Compound A2]
34162
Cc1cc(C#N)cc(C)c1Oc1nc(NC2CCN(Cc3cccc(C(N)=O)c3)CC2)nc2c1CCC2 [Compound C6]
599
Cc1cc(C#N)cc(C)c1Oc1nc(NC2CCN(Cc3ccc([N+](=O)[O-])cc3)CC2)nc2c1CCC2 [Compound C5]
1495
Cc1cc(C#N)cc(C)c1Oc1nc(NC2CCN(Cc3ccc(S(N)(=O)=O)cc3)CC2)nc2c1CSC2 [Compound D1]
715

// moving on: another record for SI IIIB
# input Consider the molecule Cc1cc(C#N)cc(C)c1Oc1nc(NC2CCN(Cc3ccc(S(C)(=O)=O)cc3)CC2)nc2c1COC2 [Compound B3] and give its recorded SI IIIB.
# output 14414

====

Test: Cytotoxicity in mock-infected MT-4 cells, MTT method
Assay type: cell-based
Conditions: human, concentration reducing viability of mock-infected MT-4 cell cultures by 50%, MTT method; read-out: CC50
CC50 at 5 days overview

Cc1cc(C#N)cc(C)c1Oc1nc(NC2CCN(Cc3ccncc3)CC2)nc2c1CCC2
> 200 µM

Next, consider the following compound.
# input Consider the compound Cc1cc(C#N)cc(C)c1Oc1nc(NC2CCN(Cc3ccc(S(C)(=O)=O)cc3)CC2)nc2c1CCC2 and give its recorded CC50 at 5 days.
# output > 200 µM

====

Assay: Cytotoxicity in mock-infected MT-4 cells, MTT method
Assay type: cell-based
Details: human, CC50
Parameter measured: CC50 at 5 days

# input Determine its reported CC50 at 5 days: Cc1cc(C#N)cc(C)c1Oc1nc(NC2CCN(Cc3ccncc3)CC2)nc2c1SCC2
# output ≥ 106 µM

====

Assay: Cytotoxicity in mock-infected MT-4 cells, MTT method
Assay type: cell-based
Details: human, CC50
Parameter measured: CC50 at 5 days

Below are worked cases with known answers.
Cc1cc(C#N)cc(C)c1Oc1nc(NC2CCN(Cc3ccc(S(N)(=O)=O)cc3)CC2)nc2c1CCC2 [Compound C1]
> 200 µM
Cc1cc(C#N)cc(C)c1Oc1nc(NC2CCN(Cc3ccc(C(N)=O)cc3)CC2)nc2c1COC2 [Compound B2]
> 200 µM
Cc1cc(C#N)cc(C)c1Oc1nc(NC2CCN(Cc3ccc(C(N)=O)cc3)CC2)nc2c1CCC2 [Compound C2]
> 251 µM
Cc1cc(C#N)cc(C)c1Oc1nc(NC2CCN(Cc3ccc([N+](=O)[O-])cc3)CC2)nc2c1COC2 [Compound B5]
≥ 11.1 µM
Cc1cc(C#N)cc(C)c1Oc1nc(Nc2ccc(C#N)cc2)nc(N)c1Br [ETR, Etravirine, reference compound]
> 4.59 µM
Cc1cc(C#N)cc(C)c1Oc1nc(NC2CCN(Cc3cccc(C(N)=O)c3)CC2)nc2c1SCC2 [Compound A6]
≥ 223 µM
Cc1cc(C#N)cc(C)c1Oc1nc(NC2CCN(Cc3cccc(C(N)=O)c3)CC2)nc2c1COC2 [Compound B6]
> 250 µM

// switching to the query compound
# input Kindly indicate its recorded CC50 at 5 days. Item: Cc1cc(C#N)cc(C)c1Oc1nc(NC2CCN(Cc3ccc(S(C)(=O)=O)cc3)CC2)nc2c1CCC2 [Compound C3]
# output > 274 µM
